Below are pKd values recorded for hCB1R (Homo sapiens).
Quick note: pKd values are minus log10 of concentrations in mol/L.

Here are 2 compounds together with their reported answers.
CCCCC[C@H](c1cccc(F)c1)C(C)(C)c1cc(OC)c([C@H]2C=C(CO)[C@H]3C[C@@H]2C3(C)C)c(OC)c1	5.57
CCCCCC(C(C)C)C(C)(C)c1cc(OC)c([C@H]2C=C(CO)[C@H]3C[C@@H]2C3(C)C)c(OC)c1 (stereo partly drawn)	5.15

Bench note: what pKd did CCCCC[C@@H](c1ccccc1)C(C)(C)c1cc(OC)c([C@H]2C=C(CO)[C@H]3C[C@@H]2C3(C)C)c(OC)c1 show?
6.15

###

target: hCB1R (Homo sapiens, UniProt P21554); test: hCB1R binding (Kd hCB1R, Table 1)
Sequence (P21554 whole entry): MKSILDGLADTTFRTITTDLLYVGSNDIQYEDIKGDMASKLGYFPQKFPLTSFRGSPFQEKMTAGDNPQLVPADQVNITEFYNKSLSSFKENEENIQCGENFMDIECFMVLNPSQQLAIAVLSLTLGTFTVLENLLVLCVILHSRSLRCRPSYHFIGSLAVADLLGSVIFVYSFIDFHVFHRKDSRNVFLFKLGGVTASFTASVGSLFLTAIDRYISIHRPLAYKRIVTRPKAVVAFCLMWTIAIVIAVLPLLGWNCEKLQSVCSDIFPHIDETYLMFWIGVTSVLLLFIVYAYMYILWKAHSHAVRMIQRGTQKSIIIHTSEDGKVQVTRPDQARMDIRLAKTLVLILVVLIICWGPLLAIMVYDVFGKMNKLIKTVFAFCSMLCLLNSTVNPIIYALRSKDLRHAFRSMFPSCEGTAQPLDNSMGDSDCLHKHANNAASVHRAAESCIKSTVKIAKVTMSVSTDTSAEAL
propertyLabel: Kd
The answer should read as a number with its unit following.

Bench note: what Kd did CCCCC[C@@H](CC)C(C)(C)c1cc(OC)c([C@H]2C=C(CO)[C@H]3C[C@@H]2C3(C)C)c(OC)c1 (single isomer, unassigned) show?
2.19 µM

For COc1cc(C(C)(C)[C@H](CCCCCN=[N+]=[N-])c2ccccc2)cc(OC)c1[C@H]1C=C(CNC(=O)CCCCCCNc2ccc([N+](=O)[O-])c3nonc23)[C@H]2C[C@@H]1C2(C)C then?
0.84 µM

For CCCCC[C@@H](c1ccc(F)cc1)C(C)(C)c1cc(OC)c([C@H]2C=C(CO)[C@H]3C[C@@H]2C3(C)C)c(OC)c1 then?
1.79 µM

For COc1cc(C(C)(C)[C@H](CCCCCN=[N+]=[N-])c2ccccc2)cc(OC)c1[C@H]1C=C(CNC(=O)CCCCCNC(=O)c2ccc3c(c2)C(=O)OC32c3ccc(N)c(S(=O)(=O)O)c3Oc3c2ccc(N)c3S(=O)(=O)O)[C@H]2C[C@@H]1C2(C)C then?
3.3 µM

For CCCCC[C@H](c1ccc(F)cc1)C(C)(C)c1cc(OC)c([C@H]2C=C(CO)[C@H]3C[C@@H]2C3(C)C)c(OC)c1 then?
1.48 µM

###

Reported pKd values for the following compounds.
biological target: human CB2 receptor (hCB2R) (Homo sapiens); construct: expressed in transfected cells; membranes; experiment: TR-FRET hCB2R binding assay; details: TR-FRET, membranes of SNAP-tagged human CB2R HEK293-TR cells, 100 μM GppNHp, nonspecific binding with SR144528; read-out: Kd hCB2R
Quick note: pKd values are minus log10 of concentrations in mol/L.

CCCCCC(CCC)C(C)(C)c1cc(OC)c([C@H]2C=C(CO)[C@H]3C[C@@H]2C3(C)C)c(OC)c1 (stereo partly drawn) [Example 5]	7.13
COc1cc(C(C)(C)[C@@H](CCCCCN=[N+]=[N-])c2ccccc2)cc(OC)c1[C@H]1C=C(CN)[C@H]2C[C@@H]1C2(C)C [Example 14]	6.32

Bench note: what pKd did COc1cc(C(C)(C)[C@H](CCCCCN=[N+]=[N-])c2ccccc2)cc(OC)c1[C@H]1C=C(CN)[C@H]2C[C@@H]1C2(C)C [Example 15] show?
7.41

###

Reported pKd values for the following compounds.
target: human CB2 receptor (hCB2R) (Homo sapiens, UniProt P34972); construct: expressed in transfected cells; membranes; assay: TR-FRET hCB2R binding assay; conditions: TR-FRET, membranes of SNAP-tagged human CB2R HEK293-TR cells, 100 μM GppNHp, nonspecific binding with SR144528; read-out: Kd hCB2R
Sequence (P34972 whole entry): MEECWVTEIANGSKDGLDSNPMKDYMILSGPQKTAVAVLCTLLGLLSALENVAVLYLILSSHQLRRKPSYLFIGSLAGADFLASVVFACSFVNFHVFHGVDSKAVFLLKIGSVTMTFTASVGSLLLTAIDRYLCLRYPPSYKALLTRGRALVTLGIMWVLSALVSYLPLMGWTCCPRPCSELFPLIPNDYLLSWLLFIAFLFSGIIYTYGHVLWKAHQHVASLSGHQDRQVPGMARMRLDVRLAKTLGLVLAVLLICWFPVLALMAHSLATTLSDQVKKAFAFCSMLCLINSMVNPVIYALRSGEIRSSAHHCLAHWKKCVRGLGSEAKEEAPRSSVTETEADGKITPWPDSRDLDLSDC
Quick note: pKd values are minus log10 of concentrations in mol/L.

Here are 10 compounds together with their reported answers.
C#CCCC(=O)NCC1=C[C@H](c2c(OC)cc(C(C)(C)[C@H](CCCCCN=[N+]=[N-])c3ccccc3)cc2OC)[C@@H]2C[C@H]1C2(C)C [Example 19]	9.38
CCCCCC(CC)C(C)(C)c1cc(OC)c([C@H]2C=C(CO)[C@H]3C[C@@H]2C3(C)C)c(OC)c1 (some centres unmarked) [Example 3]	9.25
COc1cc(C(C)(C)[C@H](CCCCCN=[N+]=[N-])c2ccccc2)cc(OC)c1[C@H]1C=C(CNC(=O)CCCCCNC(=O)c2ccc3c(c2)C(=O)OC32c3ccc(N(C)C)cc3Oc3cc(N(C)C)ccc32)[C@H]2C[C@@H]1C2(C)C [Example 25]	8.56
CCCCCC(c1ccccc1)C(C)(C)c1cc(OC)c([C@H]2C=C(CNC(=O)CCCCC[n+]3cc(S(=O)(=O)[O-])ccc3/C=C/c3cc4ccc(N(CC)CC)cc4oc3=O)[C@H]3C[C@@H]2C3(C)C)c(OC)c1 (some centres unmarked) [Example 16]	6.67
CCCCC[C@@H](C(F)(F)F)C(C)(C)c1cc(OC)c([C@H]2C=C(CO)[C@H]3C[C@@H]2C3(C)C)c(OC)c1 [Example 1]	6.22
C#CCCC(=O)NCC1=C[C@H](c2c(OC)cc(C(C)(C)[C@@H](CCCCCN=[N+]=[N-])c3ccccc3)cc2OC)[C@@H]2C[C@H]1C2(C)C [Example 18]	8.68
COc1cc(C(C)(C)[C@H](CCCCCN=[N+]=[N-])c2ccccc2)cc(OC)c1[C@H]1C=C(CNC(=O)CCCCCCNc2ccc([N+](=O)[O-])c3nonc23)[C@H]2C[C@@H]1C2(C)C [Example 24]	7.91
CCCCC[C@@H](c1ccccc1)C(C)(C)c1cc(OC)c([C@H]2C=C(CO)[C@H]3C[C@@H]2C3(C)C)c(OC)c1 [Example 8]	8.35
CCCCC[C@H](c1ccccc1)C(C)(C)c1cc(OC)c([C@H]2C=C(CO)[C@H]3C[C@@H]2C3(C)C)c(OC)c1 [Example 7]	6.71
COc1cc(C(C)(C)[C@H](CCCCCN=[N+]=[N-])c2ccccc2)cc(OC)c1[C@H]1C=C(CNC(=O)CCCCCNC(=O)c2ccc3c(c2)C2(OC3=O)c3ccc(O)cc3Oc3cc(O)ccc32)[C@H]2C[C@@H]1C2(C)C [Example 26]	7.52

Bench note: what pKd did CCCCC[C@@H](c1cccc(F)c1)C(C)(C)c1cc(OC)c([C@H]2C=C(CO)[C@H]3C[C@@H]2C3(C)C)c(OC)c1 [Example 12] show?
7.52

###

molecular target: CB2 receptor (hCB2R), CHO cell line stably overexpressing CB2 receptor (Homo sapiens, UniProt P34972); experiment: cAMP hCB2R functional assay (HTRF); conditions: CHO cells overexpressing CB2 receptor, forskolin, means ± SEM of 2-3 independent experiments
Sequence (P34972 whole entry): as above
Reported pEC50 values for the following molecules.
Quick note: pEC50 values are minus log10 of concentrations in mol/L.

Here are 3 molecules together with their reported answers.
COc1cc(C(C)(C)[C@H](CCCCCN=[N+]=[N-])c2ccccc2)cc(OC)c1[C@H]1C=C(CNC(=O)CCCCCCNc2ccc([N+](=O)[O-])c3nonc23)[C@H]2C[C@@H]1C2(C)C	5.91
CCN(CC)c1ccc2cc(/C=C/c3ccc(S(=O)(=O)[O-])c[n+]3CCCCCC(=O)NCC3=C[C@H](c4c(OC)cc(C(C)(C)[C@@H](CCCCCN=[N+]=[N-])c5ccccc5)cc4OC)[C@@H]4C[C@H]3C4(C)C)c(=O)oc2c1	6.47
CCCCCC(CC)C(C)(C)c1cc(OC)c([C@H]2C=C(CO)[C@H]3C[C@@H]2C3(C)C)c(OC)c1 (some centres unmarked)	7.00

Bench note: what pEC50 did COc1cc(C(C)(C)[C@H](CCCCCN=[N+]=[N-])c2ccccc2)cc(OC)c1[C@H]1C=C(CN)[C@H]2C[C@@H]1C2(C)C show?
6.95

For CCCCC[C@H](c1ccccc1)C(C)(C)c1cc(OC)c([C@H]2C=C(CO)[C@H]3C[C@@H]2C3(C)C)c(OC)c1 then?
6.38

###

molecular target: human CB2 receptor (hCB2R) (Homo sapiens); construct: expressed in transfected cells; membranes; assay: TR-FRET hCB2R binding assay; details: TR-FRET, membranes of SNAP-tagged human CB2R HEK293-TR cells, 100 μM GppNHp, nonspecific binding with SR144528; read-out: Kd hCB2R
Reported pKd values for the following compounds.
Quick note: pKd values are minus log10 of concentrations in mol/L.

CCCCC[C@H](C(F)(F)F)C(C)(C)c1cc(OC)c([C@H]2C=C(CO)[C@H]3C[C@@H]2C3(C)C)c(OC)c1	8.00
CCCCC[C@H](c1ccc(F)cc1)C(C)(C)c1cc(OC)c([C@H]2C=C(CO)[C@H]3C[C@@H]2C3(C)C)c(OC)c1	5.94

Kindly consider the entry below.
Bench note: what pKd did CCCCC[C@H](c1cccc(F)c1)C(C)(C)c1cc(OC)c([C@H]2C=C(CO)[C@H]3C[C@@H]2C3(C)C)c(OC)c1 show?
6.45

###

target: human CB2 receptor (hCB2R) (Homo sapiens, UniProt P34972); construct: expressed in transfected cells; membranes; assay: TR-FRET hCB2R binding assay; conditions: TR-FRET, membranes of SNAP-tagged human CB2R HEK293-TR cells, 100 μM GppNHp, nonspecific binding with SR144528; read-out: Kd hCB2R
Reported Kd values for the following compounds.
Number only, in nM; omit the unit.

Here are 5 compounds together with their reported answers.
COc1cc(C(C)(C)[C@@H](CCCCCN=[N+]=[N-])c2ccccc2)cc(OC)c1[C@H]1C=C(CNC(=O)CCCCCCNc2ccc([N+](=O)[O-])c3nonc23)[C@H]2C[C@@H]1C2(C)C [Example 23]	158
CCN(CC)c1ccc2cc(/C=C/c3ccc(S(=O)(=O)[O-])c[n+]3CCCCCC(=O)NCC3=C[C@H](c4c(OC)cc(C(C)(C)[C@H](CCCCCN=[N+]=[N-])c5ccccc5)cc4OC)[C@@H]4C[C@H]3C4(C)C)c(=O)oc2c1 [Example 22]	10.2
CCCCC[C@@H](c1ccc(F)cc1)C(C)(C)c1cc(OC)c([C@H]2C=C(CO)[C@H]3C[C@@H]2C3(C)C)c(OC)c1 [Example 10]	301
CCN(CC)c1ccc2cc(/C=C/c3ccc(S(=O)(=O)[O-])c[n+]3CCCCCC(=O)NCC3=C[C@H](c4c(OC)cc(C(C)(C)C(CCCCCN=[N+]=[N-])c5ccccc5)cc4OC)[C@@H]4C[C@H]3C4(C)C)c(=O)oc2c1 (stereo partly drawn) [Example 20]	67.9
CCN(CC)c1ccc2cc(/C=C/c3ccc(S(=O)(=O)[O-])c[n+]3CCCCCC(=O)NCC3=C[C@H](c4c(OC)cc(C(C)(C)[C@@H](CCCCCN=[N+]=[N-])c5ccccc5)cc4OC)[C@@H]4C[C@H]3C4(C)C)c(=O)oc2c1 [Example 21]	162

Param readout= Kd; system= human CB2 receptor (hCB2R) (Homo sapiens, UniProt P34972); entry= COc1cc(C(C)(C)[C@H](CCCCCN=[N+]=[N-])c2ccccc2)cc(OC)c1[C@H]1C=C(CNC(=O)CCCCCNC(=O)c2ccc3c(c2)C(=O)OC32c3ccc(N)c(S(=O)(=O)O)c3Oc3c2ccc(N)c3S(=O)(=O)O)[C@H]2C[C@@H]1C2(C)C [Example 29] ; returns value.
24.9

For CCCCCC(C(C)C)C(C)(C)c1cc(OC)c([C@H]2C=C(CO)[C@H]3C[C@@H]2C3(C)C)c(OC)c1 (stereo partly drawn) [Example 6] then?
6.1

For COc1cc(C(C)(C)[C@H](CCCCCN=[N+]=[N-])c2ccccc2)cc(OC)c1[C@H]1C=C(CNC(=O)CCCCCNC(=O)CCCCC[N+]2=C(/C=C/C=C/C=C3/N(CCCS(=O)(=O)O)c4ccc(S(=O)(=O)O)cc4C3(C)C)C(C)(CCCCS(=O)(=O)O)c3cc(S(=O)(=O)[O-])ccc32)[C@H]2C[C@@H]1C2(C)C (stereo partly drawn) [Example 27] then?
25.9

For CCCCC[C@@H](CC)C(C)(C)c1cc(OC)c([C@H]2C=C(CO)[C@H]3C[C@@H]2C3(C)C)c(OC)c1 (single isomer, unassigned) [Example 4] then?
0.97
